# Test system: RPMI8226 myeloma cancer cells
# assayExplanation: cells
# Assay type: cell-based, human
# runConditions: read-out: IC50 RPMI8226
assayReadout: IC50
Report as: number unit

Recorded IC50, per entry:
# compound, result
data = [
    ("CCCN(C=NC(Cc1ccc(N(CCCl)CCCl)cc1)C(=O)OCC)CCC (stereo not drawn)", "5.94 µM"),
    ("CCCN(C=NC(Cc1ccc(N(CCCl)CCCl)cc1)C(=O)OC)CCC (stereo not drawn)", "4.85 µM"),
]

Per the records, this compound ( CCOC(=O)C(N)Cc1ccc(N(CCCl)CCCl)cc1 (stereo not drawn) ) has IC50 equal to 1.17 µM

Hello, the source for this data is paper PMC7066245, in case you need it.
